MEASURED ON: T1, glucose-dependent insulinotropic peptide (gastric inhibitory polypeptide) receptor (human, UniProt P48546 22-466)
T1 sequence (looked up): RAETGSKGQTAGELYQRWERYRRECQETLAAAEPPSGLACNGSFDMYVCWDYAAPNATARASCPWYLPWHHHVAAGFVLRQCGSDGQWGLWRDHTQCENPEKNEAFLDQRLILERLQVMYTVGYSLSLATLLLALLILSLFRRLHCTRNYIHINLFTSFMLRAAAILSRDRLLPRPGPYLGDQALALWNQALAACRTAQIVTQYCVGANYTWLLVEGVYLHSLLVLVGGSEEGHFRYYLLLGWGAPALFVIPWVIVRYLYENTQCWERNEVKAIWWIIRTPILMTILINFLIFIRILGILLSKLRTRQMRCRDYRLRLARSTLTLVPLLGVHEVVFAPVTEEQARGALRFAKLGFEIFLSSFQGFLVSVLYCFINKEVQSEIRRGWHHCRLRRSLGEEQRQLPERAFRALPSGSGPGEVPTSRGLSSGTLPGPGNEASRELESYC
ASSAY: cell-based or functional assay
Starred links: 1 amine or outer side, 2 acyl side, 3 side chain; linkers in the order of their positions; H or OH if unused. Non-standard residues stand in square brackets, D forms with d. Groups on a side chain read outwards from the residue. Primed or numbered codes have the meaning given here. No end group written: not given here. *: point of attachment. γGlu = O=C(O)[C@H](CCC(=O)[*:2])N[*:1]; Stearoyl = CCCCCCCCCCCCCCCCCC(=O)*; αMeF = C[C@](N)(Cc1ccccc1)C(=O)O; αMeK = C[C@](N)(CCCCN)C(=O)O; αMeS = C[C@](N)(CO)C(=O)O; PEG2′ = not defined here; Aib = CC(C)(N)C(=O)O
REPORTED METRIC: Primary assay EC50 (cAMP), n2 (nM)

{"BINDER": "H[Aib]EGS[αMeF]TSDV[αMeS]S[αMeF]LEGEAAK([PEG2′-PEG2′-γGlu-Stearoyl])EFIA[αMeF]VV[αMeK]GG-NH2 [SEQ ID NO 48]", "READING UNIT": "nM", "Primary assay EC50 (cAMP), n2": 26}
{"BINDER": "H[Aib]EGS[αMeF]TSDVSK([PEG2′-PEG2′-PEG2′-Stearoyl])YLEGEAAEE[αMeF]IA[αMeF]VVEGG-NH2 [SEQ ID NO 62]", "READING UNIT": "nM", "Primary assay EC50 (cAMP), n2": 25}
{"BINDER": "H[Aib]EGS[αMeF]TSDV[αMeS]S[αMeF]LEGEAA[Aib]EFIK([PEG2′-PEG2′-γGlu-Stearoyl])WVVEGG-NH2 [SEQ ID NO 67]", "READING UNIT": "nM", "Primary assay EC50 (cAMP), n2": 25.4}
{"BINDER": "H[Aib]EGSFTSDV[αMeS]S[αMeF]LEGEAAK([PEG2′-PEG2′-PEG2′-Stearoyl])E[αMeF]IA[αMeF]VV[αMeK]GG-NH2 [SEQ ID NO 51]", "READING UNIT": "nM", "Primary assay EC50 (cAMP), n2": 26}
{"BINDER": "H[Aib]EGS[αMeF]TSDVSK([PEG2′-PEG2′-γGlu-Stearoyl])YLEGEAAKE[αMeF]IA[αMeF]VVEGG-NH2 [SEQ ID NO 57]", "READING UNIT": "nM", "Primary assay EC50 (cAMP), n2": 25}
